Tested on: U2OS
Assay: Multiplex assay against U2OS
Assay type: toxicity, cell-based
Details: human, 24 h, 10 µM, compound concentration 10 uM, replicate 1
Population Tubulin-Different-Phenotype (%): recorded values
A number alone suffices; assume %.

Here is how some molecules turned out for Population Tubulin-Different-Phenotype (%).
| molecule | val |
| --- | --- |
| NCCc1cn(S(=O)(=O)c2c(Cl)nc3sccn23)c2ccccc12.O=C(O)C(=O)O | 26 |
| Cc1cnc(-c2cc(N3CCN(C(=O)CCS(C)(=O)=O)CC3)ncc2Cl)c(C)c1 | 0 |
| N#Cc1c(Oc2cccc(OS(=O)(=O)CCCC(F)(F)F)c2)cccc1C(F)(F)F | 5 |
| CCCCCC(O)/C=C/[C@H]1C(=O)CC(O)C1C/C=C\CCCC(=O)O (some centres undefined) | 4 |
| Br.CS(=O)(=O)Nc1c(O)ccc2c1CCCC2C1=NCCN1 (centres undefined) | 2 |

What value of measured Population Tubulin-Different-Phenotype (%) is listed for "C[C@H](N)COC(=O)[C@@H](CCCCN)NC(=O)Cc1c(-c2ccc3ccccc3c2)[nH]c2c1ccc1ccccc12" ? 2

What value of measured Population Tubulin-Different-Phenotype (%) is listed for "CC(C)c1noc(N2CCC(COc3ccc(-c4ccc(S(C)(=O)=O)cc4)nc3)CC2)n1" ? 3

What value of measured Population Tubulin-Different-Phenotype (%) is listed for "CC(/C=C1\SC(=S)N(CCCC(=O)Nc2ccc(C(=O)O)c(O)c2)C1=O)=C\c1ccccc1" ? 3

What value of measured Population Tubulin-Different-Phenotype (%) is listed for "CC(C)(C)c1cc(NC(=O)Nc2ccc(-c3cn4c(n3)sc3cc(OCCN5CCOCC5)ccc34)cc2)no1" ? 45
